Documented Population Pyknosed Nuclei (%) across a set of compounds
- Tested on: HEK-293T
- run-description: Multiplex assay against HEK293T
- Type: toxicity, cell-based
- cond: human, 48 h, 1 µM, compound concentration 1 uM, replicate 2
Your answer should be a plain number; it is taken to be in %.

# compound, quantitative-result
rows = [
    ("Cc1onc(-c2ccccc2Cl)c1C(=O)N(C)c1ccc(Cl)cc1", 5),
]

Population Pyknosed Nuclei (%) for `CCCCC(=O)N(Cc1ccc(-c2ccccc2-c2nnn[nH]2)cc1)[C@H](C(=O)O)C(C)C` is 6

Quick note, Population Pyknosed Nuclei (%) for `CN1CCN(c2cc(-c3ccccc3)nc(N)n2)CC1` landed at 6

Entry under test: Cc1sc2c(c1C)C(c1ccc(Cl)cc1)=N[C@@H](CC(=O)NCCCCCCCCNC(=O)COc1cccc3c1C(=O)N(C1CCC(=O)NC1=O)C3=O)c1nnc(C)n1-2 (some centres not stated) . Its Population Pyknosed Nuclei (%) was 25

Sure, the documented Population Pyknosed Nuclei (%) for COC[C@@H](c1ccc(C(F)(F)F)cc1)N1CCN(C2(C)CCN(C(=O)c3c(C)ncnc3C)CC2)C[C@@H]1C.O=C(O)/C=C\C(=O)O [VICRIVIROC MALEATE] is 5

Population Pyknosed Nuclei (%) reading for `Cc1cccc(NC(=O)CN2CCC(c3ccccn3)CC2)c1.Cl.Cl` : 8

Form field Population Pyknosed Nuclei (%), entry CC(C)COc1ccc(CNC(=O)N(Cc2ccc(F)cc2)C2CCN(C)CC2)cc1 [PIMAVANSERIN] : 6

So, Cc1c(CC(=O)O)c2cccnc2n1Cc1ccc(S(C)(=O)=O)cc1C(F)(F)F [FEVIPIPRANT] ? Its Population Pyknosed Nuclei (%) was 6

Lab note: CC(C)c1noc(N2CCC(COc3ccc(-c4ccc(S(C)(=O)=O)cc4)nc3)CC2)n1 [GSK-1292263] gave Population Pyknosed Nuclei (%) of 5

###

- Test system: U2OS
- run-description: Multiplex assay against U2OS
- Type: toxicity, cell-based
- cond: human, 48 h, 1 µM, compound concentration 1 uM, replicate 1
measured-property: Population Pyknosed Nuclei (%)
Quick note: give the figure in %, leave out the unit.

Sample answers from the record:
# molecule, test-system, Population Pyknosed Nuclei (%)
measured = [
    ("Cl.N=C(N)NC(=O)Cc1c(Cl)cccc1Cl [GUANFACINE HYDROCHLORIDE]", "U2OS", 10),
    ("O=C(CCCc1ccccc1)Nc1nc2ccccc2c(=O)s1", "U2OS", 9),
    ("CCCCCC(O)/C=C/[C@H]1C(=O)CC(O)C1C/C=C\\CCCC(=O)O (some centres undefined)", "U2OS", 8),
    ("Cc1onc(-c2ccccc2Cl)c1C(=O)N(C)c1ccc(Cl)cc1", "U2OS", 7),
    ("CC(/C=C1\\SC(=S)N(CCCC(=O)Nc2ccc(C(=O)O)c(O)c2)C1=O)=C\\c1ccccc1", "U2OS", 8),
]

Given item `CCc1cc2cc(NS(=O)(=O)c3ccc(C#N)cc3)ccc2n(CC)c1=O` , the value recorded as its Population Pyknosed Nuclei (%) is 8

// Population Pyknosed Nuclei (%) lookup, molecule = CC(C)COc1ccc(CNC(=O)N(Cc2ccc(F)cc2)C2CCN(C)CC2)cc1 [PIMAVANSERIN] , result: 12

Data point: `O=C1[C@H](Cc2ccc(O)cc2)N2C(=O)CCN(C(=O)NCc3ccccc3)[C@H]2CN1Cc1cccc2ccccc12` ; Population Pyknosed Nuclei (%) = 11

Please fill in: Population Pyknosed Nuclei (%) reported for CC(C)c1noc(N2CCC(COc3ccc(-c4ccc(S(C)(=O)=O)cc4)nc3)CC2)n1 [GSK-1292263] = 6

###

- System: U2OS
- run-description: Multiplex assay against U2OS
- Type: toxicity, cell-based
- cond: human, 24 h, 10 µM, compound concentration 10 uM, replicate 2
Quick rule for you: Population Mitochondria Different-Phenotype (%) at 4% or higher means MET, lower means NOT MET.

# molecule, group-label
data = [
    ("CC(C)COc1ccc(CNC(=O)N(Cc2ccc(F)cc2)C2CCN(C)CC2)cc1 [PIMAVANSERIN]", "MET"),
    ("Cc1onc(-c2ccccc2Cl)c1C(=O)N(C)c1ccc(Cl)cc1", "MET"),
    ("CCCOc1ccc2[nH]cc(C3=CCNCC3)c2n1.Cl", "NOT MET"),
    ("COc1ccccc1N1CCN(C[C@@H](C(=O)NC(C)(C)C)c2ccccc2)CC1.Cl.Cl", "MET"),
    ("N#Cc1c(Oc2cccc(OS(=O)(=O)CCCC(F)(F)F)c2)cccc1C(F)(F)F", "NOT MET"),
]

Is it the case that Cc1c(CC(=O)O)c2cccnc2n1Cc1ccc(S(C)(=O)=O)cc1C(F)(F)F [FEVIPIPRANT] has Population Mitochondria Different-Phenotype (%) reaching or exceeding 4%? NOT MET

Would you say `O=C(CCCc1ccccc1)Nc1nc2ccccc2c(=O)s1` shows Population Mitochondria Different-Phenotype (%) at minimum 4%? NOT MET

Does the reported Population Mitochondria Different-Phenotype (%) for `Cc1cnc(-c2cc(N3CCN(C(=O)CCS(C)(=O)=O)CC3)ncc2Cl)c(C)c1` fall at or above the 4% mark? NOT MET

For this molecule, is measured Population Mitochondria Different-Phenotype (%) 4% or higher? `O=C1[C@H](Cc2ccc(O)cc2)N2C(=O)CCN(C(=O)NCc3ccccc3)[C@H]2CN1Cc1cccc2ccccc12` MET

###

Recorded Population Healthy Nuclei (%) for the following compounds
- System: HEK-293T
- run-description: Multiplex assay against HEK293T
- Assay type: toxicity, cell-based
- cond: human, 24 h, 10 µM, compound concentration 10 uM, replicate 1
Give the quantity in %, number only.

These solved cases illustrate the format of a correct answer.
# compound, Population Healthy Nuclei (%)
records = [
    ("Cc1cccc(NC(=O)CN2CCC(c3ccccn3)CC2)c1.Cl.Cl", 74),
    ("CCCCCC(O)/C=C/[C@H]1C(=O)CC(O)C1C/C=C\\CCCC(=O)O (stereo not given in full)", 75),
    ("Cc1sc2c(c1C)C(c1ccc(Cl)cc1)=N[C@@H](CC(=O)NCCCCCCCCNC(=O)COc1cccc3c1C(=O)N(C1CCC(=O)NC1=O)C3=O)c1nnc(C)n1-2 (stereo not given in full)", 64),
    ("CC(/C=C1\\SC(=S)N(CCCC(=O)Nc2ccc(C(=O)O)c(O)c2)C1=O)=C\\c1ccccc1", 75),
    ("N#Cc1c(Oc2cccc(OS(=O)(=O)CCCC(F)(F)F)c2)cccc1C(F)(F)F", 77),
]

Now for a further compound.
Lab note: `Cc1noc(-c2ccc(-c3ccc(CC(=O)O)cc3)cc2)c1NC(=O)O[C@H](C)c1ccccc1Cl` gave Population Healthy Nuclei (%) of 76

###

- Tested on: U2OS
- run-description: Multiplex assay against U2OS
- Assay type: toxicity, cell-based
- cond: human, 48 h, 10 µM, compound concentration 10 uM, replicate 2
Mark f for Population Fragmented Nuclei (%) values under 20%, and t for everything at or above.

# molecule, group-label
records = [
    ("Cc1cnc(-c2cc(N3CCN(C(=O)CCS(C)(=O)=O)CC3)ncc2Cl)c(C)c1", "t"),
    ("Cc1sc2c(c1C)C(c1ccc(Cl)cc1)=N[C@@H](CC(=O)NCCCCCCCCNC(=O)COc1cccc3c1C(=O)N(C1CCC(=O)NC1=O)C3=O)c1nnc(C)n1-2 (some centres undefined)", "t"),
    ("COc1ccccc1N1CCN(C[C@@H](C(=O)NC(C)(C)C)c2ccccc2)CC1.Cl.Cl", "f"),
    ("CC(=O)Nc1cccc2c1c(Sc1ccc(Cl)cc1)c(C)n2CC(=O)O", "f"),
    ("N#Cc1c(Oc2cccc(OS(=O)(=O)CCCC(F)(F)F)c2)cccc1C(F)(F)F", "f"),
    ("Cl.N=C(N)NC(=O)Cc1c(Cl)cccc1Cl [GUANFACINE HYDROCHLORIDE]", "f"),
]

Given `COc1cccc2c1c(NS(=O)(=O)c1ccc(Cl)s1)nn2Cc1cccc(CNC(=O)C(C)(C)O)c1` , state whether its Population Fragmented Nuclei (%) is at least 20%. t

# bool: Population Fragmented Nuclei (%) of `CN(C)C(=O)Cn1cc(-c2ccc(-c3cncc4ccccc34)cc2)cn1` >= 20% t

Is the recorded value of Population Fragmented Nuclei (%) equal to or greater than 20% for this molecule? `CCc1cc2cc(NS(=O)(=O)c3ccc(C#N)cc3)ccc2n(CC)c1=O` f

###

- Test system: HEK-293T
- run-description: Multiplex assay against HEK293T
- Assay type: toxicity, cell-based
- cond: human, 24 h, 1 µM, compound concentration 1 uM, replicate 2
measured-property: Population Mitotic Cells (%)
Supply the numeric figure in %, leaving out any unit text.

Sample answers from the record:
# compound, Population Mitotic Cells (%)
rows = [
    ("Cc1sc2c(c1C)C(c1ccc(Cl)cc1)=N[C@@H](CC(=O)NCCCCCCCCNC(=O)COc1cccc3c1C(=O)N(C1CCC(=O)NC1=O)C3=O)c1nnc(C)n1-2 (stereo partly drawn)", 32),
    ("O=C(CCCc1ccccc1)Nc1nc2ccccc2c(=O)s1", 54),
    ("CC(C)COc1ccc(CNC(=O)N(Cc2ccc(F)cc2)C2CCN(C)CC2)cc1 [PIMAVANSERIN]", 51),
]

Now take the following compound into account.
For this compound ( Br.CS(=O)(=O)Nc1c(O)ccc2c1CCCC2C1=NCCN1 (stereo not drawn) ), measured Population Mitotic Cells (%) is 44
